tested on: Fibroblast; assay: Multiplex assay against human fibroblast; type: toxicity, cell-based; conditions: 48 h, 1 µM, compound concentration 1 uM, replicate 2
endpoint: Population Fragmented Nuclei (%)
Give bare numbers, in %.

Here is how some compounds turned out for Population Fragmented Nuclei (%).
Requested read-out Population Fragmented Nuclei (%), target or system Fibroblast, entry CSc1ccccc1N1CCN(CCCCCC(=O)NC2CCCc3ccccc32)CC1.Cl (centres undefined)
33

Requested read-out Population Fragmented Nuclei (%), target or system Fibroblast, entry COc1c(C)cc(NC(=O)c2nn(Cc3ccc(F)cc3)c3c2CN(C(=O)c2ccc[nH]2)C[C@]3(C)C(N)=O)cc1C
34

Requested read-out Population Fragmented Nuclei (%), target or system Fibroblast, entry CCCN1CCC[C@@H]2Cc3n[nH]cc3C[C@H]21.Cl [QUINPIROLE HYDROCHLORIDE]
37

// for each compound in input: emit Population Fragmented Nuclei (%)
1. COc1ccc2c(c1)C(C(=O)N(Cc1ccc(N(C)C)cc1)c1ccc(C(C)C)cc1)CCC2.Cl (centres undefined)
2. CCCn1c(=O)c2[nH]c(C3CCCC3)nc2n(CCC)c1=O

1: 26; 2: 39

----------
system: U2OS; assay: Multiplex assay against U2OS; assay type: toxicity, cell-based; conditions: human, 24 h, 1 µM, compound concentration 1 uM, replicate 1
Please go through the items and note down their Population Mitochondria Different-Phenotype (%).
Give bare numbers, in %.

Here is how some molecules turned out for Population Mitochondria Different-Phenotype (%).
# get_value(readout='Population Mitochondria Different-Phenotype (%)', item= O=C(O)Cc1ccccc1Nc1c(Cl)cccc1Cl )
2

# get_value(readout='Population Mitochondria Different-Phenotype (%)', item= Cc1nc2ccc(Oc3ccc(F)cc3)cc2c(=O)n1C[C@H]1CCCN(C(C)C)C1.Cl )
5

# get_value(readout='Population Mitochondria Different-Phenotype (%)', item= COc1cc(C(=O)N(CCCc2ccccc2)Cc2ccc(CC(=O)O)cc2)cc(OC)c1C )
6

# get_value(readout='Population Mitochondria Different-Phenotype (%)', item= c1cc(OCCCN2CCCCC2)ccc1CN1CCCCC1 )
2

# get_value(readout='Population Mitochondria Different-Phenotype (%)', item= Cc1ccc(F)cc1C(=O)Nc1ccc(C(=O)N2Cc3cccn3Cc3ccccc32)c(Cl)c1 )
9

// for each molecule in input: emit Population Mitochondria Different-Phenotype (%)
1. COc1ccc2c(c1)C(C(=O)N(Cc1ccc(N(C)C)cc1)c1ccc(C(C)C)cc1)CCC2.Cl (configuration not stated)
2. COc1c(C)cc(NC(=O)c2nn(Cc3ccc(F)cc3)c3c2CN(C(=O)c2ccc[nH]2)C[C@]3(C)C(N)=O)cc1C
3. Cc1ccc(/C(=C\CN2CCCC2)c2ccccn2)cc1
4. CCCC(CCC)C(=O)O
5. O=S(=O)(c1ccccc1)c1cnc2c(N3CCNCC3)cccc2c1 [INTEPIRDINE]
6. CCNC1(C(N)=O)CCN(c2ncnc3c2nc(-c2ccccc2Cl)n3-c2ccc(Cl)cc2)CC1

1. 4
2. 6
3. 3
4. 6
5. 2
6. 5

# get_value(readout='Population Mitochondria Different-Phenotype (%)', item= CN1CCN(c2nc3cc(C(F)(F)F)ccc3n3cccc23)CC1.O=C(O)/C=C\C(=O)O.O=C(O)/C=C\C(=O)O )
1

----------
Please go through the items and note down their Total Cell Count.
system: Fibroblast; assay: Multiplex assay against human fibroblast; format: toxicity, cell-based; settings: 48 h, 1 µM, compound concentration 1 uM, replicate 2
One number for each entry.

# get_value(readout='Total Cell Count', item= N#Cc1c(N)nc(SCc2csc(-c3ccc(Cl)cc3)n2)c(C#N)c1-c1ccc(OCCO)cc1 [CAPADENOSON] )
151

# get_value(readout='Total Cell Count', item= Cc1ccc(/C(=C\CN2CCCC2)c2ccccn2)cc1 [TRIPROLIDINE] )
124

# get_value(readout='Total Cell Count', item= CN1CCN(c2nc3cc(C(F)(F)F)ccc3n3cccc23)CC1.O=C(O)/C=C\C(=O)O.O=C(O)/C=C\C(=O)O )
102

# get_value(readout='Total Cell Count', item= N[C@@]1(C(=O)O)CO[C@H]2[C@H](C(=O)O)[C@H]21 [LY-379268] )
136

# get_value(readout='Total Cell Count', item= O=C(NCC(=O)N1CC[C@H](N[C@H]2CC[C@@](O)(c3ccc(-c4ncccn4)cn3)CC2)C1)c1cccc(C(F)(F)F)c1 [PF-4136309] )
137

// for each compound in input: emit Total Cell Count
1. CSCC[C@H](NC=O)C(=O)N[C@@H](CC(C)C)C(=O)N[C@@H](Cc1ccccc1)C(=O)O
2. CCCN1CCC[C@@H]2Cc3n[nH]cc3C[C@H]21.Cl [QUINPIROLE HYDROCHLORIDE]
3. COc1ccc2c(c1)C(C(=O)N(Cc1ccc(N(C)C)cc1)c1ccc(C(C)C)cc1)CCC2.Cl (configuration not stated)
4. CN(C)c1ccnc2sc3c(=O)n(N4CCCCCC4)cnc3c12
5. Cl.Clc1ccc2nsnc2c1NC1=NCCN1 [TIZANIDINE HYDROCHLORIDE]
6. CCOc1c2c(c(OCC)c3ncccc13)CN(c1ccc(CS(=O)(=O)NC(=O)Cc3ccccc3OC)cc1C)C2=O
7. CC(=O)NCCc1c(Cc2ccccc2)[nH]c2ccccc12 [LUZINDOLE]
8. c1cc(OCCCN2CCCCC2)ccc1CN1CCCCC1 [JNJ-5207852]

1: 174; 2: 157; 3: 152; 4: 157; 5: 166; 6: 105; 7: 149; 8: 160

----------
system: Fibroblast; test: Multiplex assay against human fibroblast; assay type: toxicity, cell-based; conditions: 12 h, 1 µM, compound concentration 1 uM, replicate 2
Please go through the items and note down their Population Normal (%).
One number for each entry, in %.

Requested read-out Population Normal (%), target or system Fibroblast, entry O=C1COc2nccc(-c3ccccc3F)c2CN1Cc1cc(C(F)(F)F)cc(C(F)(F)F)c1
99

Requested read-out Population Normal (%), target or system Fibroblast, entry O=C(NCC(=O)N1CC[C@H](N[C@H]2CC[C@@](O)(c3ccc(-c4ncccn4)cn3)CC2)C1)c1cccc(C(F)(F)F)c1
94

Requested read-out Population Normal (%), target or system Fibroblast, entry c1cc(OCCCN2CCCCC2)ccc1CN1CCCCC1
92

Requested read-out Population Normal (%), target or system Fibroblast, entry N[C@@]1(C(=O)O)CO[C@H]2[C@H](C(=O)O)[C@H]21
89

Requested read-out Population Normal (%), target or system Fibroblast, entry CC[C@H]1OC(=O)[C@H](C)[C@@H](O[C@H]2C[C@@](C)(OC)[C@@H](O)[C@H](C)O2)[C@H](C)[C@@H](O[C@@H]2O[C@H](C)C[C@H](N(C)C)[C@H]2O)[C@@]2(C)CC(C)=C(O2)[C@H](C)[C@@H](O)[C@]1(C)O
96

Requested read-out Population Normal (%), target or system Fibroblast, entry CN1CCN(c2nc3cc(C(F)(F)F)ccc3n3cccc23)CC1.O=C(O)/C=C\C(=O)O.O=C(O)/C=C\C(=O)O
93

Requested read-out Population Normal (%), target or system Fibroblast, entry COc1cc(NC(=O)CCN2CCC(OC(=O)Nc3ccccc3-c3ccccc3)CC2)c(Cl)cc1CNC[C@H](O)c1ccc(O)c2[nH]c(=O)ccc12
96

Let us examine a further case.
Requested read-out Population Normal (%), target or system Fibroblast, entry CCCN1CCC[C@@H]2Cc3n[nH]cc3C[C@H]21.Cl [QUINPIROLE HYDROCHLORIDE]
93

----------
test system: HEK-293T; test: Multiplex assay against HEK293T; assay type: toxicity, cell-based; settings: human, 48 h, 1 µM, compound concentration 1 uM, replicate 2
endpoint: Total Cell Count
Give bare numbers.

Here is how some molecules turned out for Total Cell Count.
Requested read-out Total Cell Count, target or system HEK-293T, entry N#Cc1c(N)nc(SCc2csc(-c3ccc(Cl)cc3)n2)c(C#N)c1-c1ccc(OCCO)cc1
787

Requested read-out Total Cell Count, target or system HEK-293T, entry CSc1ccccc1N1CCN(CCCCCC(=O)NC2CCCc3ccccc32)CC1.Cl (stereo not given)
471

// for each molecule in input: emit Total Cell Count
1. CCCC(CCC)C(=O)O
2. C[C@H](NC(=O)c1c(C(F)F)nn(C)c1Oc1cccc(C(F)(F)F)c1)c1ccc(C(=O)O)cc1
3. Cc1ccc(F)cc1C(=O)Nc1ccc(C(=O)N2Cc3cccn3Cc3ccccc32)c(Cl)c1

700
867
643

----------
test system: Fibroblast; assay: Multiplex assay against human fibroblast; format: toxicity, cell-based; settings: 24 h, 1 µM, compound concentration 1 uM, replicate 2
Assign fulfilled to entries whose Population Membrane Permeable-Phenotype (%) meets or exceeds 8%; assign not fulfilled to the rest.

Known results for compounds:
Kindly determine if Population Membrane Permeable-Phenotype (%) recorded for CNC[C@H](O)c1ccc(O)c(O)c1 [EPINEPHRINE] is above or exactly 8%.
fulfilled

Kindly determine if Population Membrane Permeable-Phenotype (%) recorded for CC[C@H]1OC(=O)[C@H](C)[C@@H](O[C@H]2C[C@@](C)(OC)[C@@H](O)[C@H](C)O2)[C@H](C)[C@@H](O[C@@H]2O[C@H](C)C[C@H](N(C)C)[C@H]2O)[C@@]2(C)CC(C)=C(O2)[C@H](C)[C@@H](O)[C@]1(C)O is above or exactly 8%.
not fulfilled

Kindly determine if Population Membrane Permeable-Phenotype (%) recorded for O=C(O)c1cc2ccccc2c(Cc2c(O)c(C(=O)O)cc3ccccc23)c1O [PAMOIC ACID] is above or exactly 8%.
fulfilled

Kindly determine if Population Membrane Permeable-Phenotype (%) recorded for COc1ccc2c(c1)C(C(=O)N(Cc1ccc(N(C)C)cc1)c1ccc(C(C)C)cc1)CCC2.Cl (configuration not stated) is above or exactly 8%.
not fulfilled

Kindly determine if Population Membrane Permeable-Phenotype (%) recorded for COc1cc(C(=O)N(CCCc2ccccc2)Cc2ccc(CC(=O)O)cc2)cc(OC)c1C is above or exactly 8%.
not fulfilled

Kindly determine if Population Membrane Permeable-Phenotype (%) recorded for Cc1ccc(F)cc1C(=O)Nc1ccc(C(=O)N2Cc3cccn3Cc3ccccc32)c(Cl)c1 [LIXIVAPTAN] is above or exactly 8%.
not fulfilled

Kindly determine if Population Membrane Permeable-Phenotype (%) recorded for Cc1ccc(/C(=C\CN2CCCC2)c2ccccn2)cc1 [TRIPROLIDINE] is above or exactly 8%.
not fulfilled

Kindly determine if Population Membrane Permeable-Phenotype (%) recorded for Cl.Clc1ccc2nsnc2c1NC1=NCCN1 [TIZANIDINE HYDROCHLORIDE] is above or exactly 8%.
fulfilled

Kindly determine if Population Membrane Permeable-Phenotype (%) recorded for CN(C)c1ccnc2sc3c(=O)n(N4CCCCCC4)cnc3c12 is above or exactly 8%.
fulfilled

Kindly determine if Population Membrane Permeable-Phenotype (%) recorded for C[C@H]1[C@H]2CC[C@H]3[C@@H]4CC=C5C[C@@H](N(C)C)CC[C@]5(C)[C@H]4CC[C@]23CN1C [CONESSINE] is above or exactly 8%.
fulfilled

Continuing:
Kindly determine if Population Membrane Permeable-Phenotype (%) recorded for COc1cc(NC(=O)CCN2CCC(OC(=O)Nc3ccccc3-c3ccccc3)CC2)c(Cl)cc1CNC[C@H](O)c1ccc(O)c2[nH]c(=O)ccc12 [BATEFENTEROL] is above or exactly 8%.
not fulfilled

Kindly determine if Population Membrane Permeable-Phenotype (%) recorded for O=C(O)Cc1ccccc1Nc1c(Cl)cccc1Cl [DICLOFENAC] is above or exactly 8%.
fulfilled

Kindly determine if Population Membrane Permeable-Phenotype (%) recorded for Cc1nc2ccc(Oc3ccc(F)cc3)cc2c(=O)n1C[C@H]1CCCN(C(C)C)C1.Cl is above or exactly 8%.
fulfilled

Kindly determine if Population Membrane Permeable-Phenotype (%) recorded for CCCN1CCC[C@@H]2Cc3n[nH]cc3C[C@H]21.Cl [QUINPIROLE HYDROCHLORIDE] is above or exactly 8%.
not fulfilled

Kindly determine if Population Membrane Permeable-Phenotype (%) recorded for CC1(COc2ccc3c(c2)ncn3-c2ccc3cccc(N4CCC(N)CC4)c3n2)COC1 [CRENOLANIB] is above or exactly 8%.
not fulfilled

Kindly determine if Population Membrane Permeable-Phenotype (%) recorded for CSc1ccccc1N1CCN(CCCCCC(=O)NC2CCCc3ccccc32)CC1.Cl (configuration not stated) is above or exactly 8%.
not fulfilled
